- System: HBV
- protocol description: Anti-HBV assay (inhibition of HBV replication in HepG2.cl42 cells, HBV DNA by qPCR)
- Type: cell-based, HBV ayw strain
- measurement parameters: Hepatitis B virus, 96 h, treated four days, HBV DNA quantified by real time PCR, read-out: HBsAg EC50
pEC50: −log10 of the molar value.
Below, each entry is listed with its recorded pEC50.

[[record]]
molecule = "C[C@H]1Cc2noc(N3CCOCC3)c2CN1C(=O)Nc1cc(F)c(F)c(F)c1 [Compound 59]"
assayed_target = "HBV"
result = "≤ 6.00"

[[record]]
molecule = "O=C(Nc1cc(F)c(F)c(F)c1)C1CCc2noc(-c3ccc(F)cc3F)c2C1 (stereo not shown) [Compound 6.1]"
assayed_target = "HBV"
result = "6.00 to 7.00"

[[record]]
molecule = "C[C@H]1Cc2noc(-c3ccccc3F)c2CN1C(=O)Nc1cc(F)c(F)c(F)c1 [Compound 10]"
assayed_target = "HBV"
result = "6.00 to 7.00"


Exercise: pEC50 lookup needed for C[C@H]1Cc2noc(-c3cnn(C)c3)c2CN1C(=O)Nc1cc(F)c(F)c(F)c1 [Compound 31] , thanks.
Solution: 6.00 to 7.00

Exercise: pEC50 lookup needed for Cc1nc(-c2onc3c2CN(C(=O)Nc2cc(F)c(F)c(F)c2)[C@@H](C)C3)co1 [Compound 35] , thanks.
Solution: 6.00 to 7.00

Exercise: pEC50 lookup needed for C[C@H]1c2c(noc2-c2ccn(C)n2)CCN1C(=O)Nc1cc(F)c(F)c(F)c1 [Compound 34] , thanks.
Solution: ≤ 6.00

Exercise: pEC50 lookup needed for Cc1cc(-c2onc3c2CN(C(=O)Nc2cc(F)c(F)c(F)c2)[C@@H](C)C3)no1 [Compound 25] , thanks.
Solution: 6.00 to 7.00

Exercise: pEC50 lookup needed for C[C@H]1Cc2noc(N3CCOC3=O)c2CN1C(=O)Nc1cc(F)c(F)c(F)c1 [Compound 55] , thanks.
Solution: 6.00 to 7.00

Exercise: pEC50 lookup needed for C[C@H]1Cc2noc(N3CCCS3(=O)=O)c2CN1C(=O)Nc1cc(F)c(F)c(F)c1 [Compound 58] , thanks.
Solution: > 7.00

Exercise: pEC50 lookup needed for C[C@H]1Cc2noc(-c3ccn(C)n3)c2CN1C(=O)Nc1cc(F)c(F)c(F)c1 [Compound 33] , thanks.
Solution: > 7.00
